# study target: T1, PACAP-R3 (human, UniProt P41587 24-438)
# T1 sequence (looked up): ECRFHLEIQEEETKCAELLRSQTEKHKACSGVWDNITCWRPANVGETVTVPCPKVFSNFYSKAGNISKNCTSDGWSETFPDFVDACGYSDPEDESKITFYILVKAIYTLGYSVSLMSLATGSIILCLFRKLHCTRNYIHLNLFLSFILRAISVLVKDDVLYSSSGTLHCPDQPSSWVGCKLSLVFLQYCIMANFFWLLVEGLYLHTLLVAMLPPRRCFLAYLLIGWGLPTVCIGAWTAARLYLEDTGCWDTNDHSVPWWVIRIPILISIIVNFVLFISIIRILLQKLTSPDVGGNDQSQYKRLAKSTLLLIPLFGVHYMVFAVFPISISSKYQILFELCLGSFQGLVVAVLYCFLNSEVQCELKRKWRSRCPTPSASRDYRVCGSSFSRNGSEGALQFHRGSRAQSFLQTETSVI
# assay notes: cell-based or functional assay
No end group written: not given here.
measure name: R3 EC50, nM (cAMP SPA)

> print(dat)
                                     binder  reported
1    HSDGIFTDKYSRYRKQMAVKKYLAAVL-NH2 [PAC9]    0.7 nM
2   HSDGIFTDSYKRYRKQMAVKKYLAAVL-NH2 [PAC11]    140 nM
3   HSDGIFTDSKSRYRKQMAVKKYLAAVL-NH2 [PAC10]     27 nM
4  HSDAVFTDNYTRLRKQMAAKKYLNSIKNRI [rR3P174]    0.2 nM

Data provenance: patent US6972319B1
